tgt: HIV-1 gp41 (HXB2 strain) (HIV-1 HXB2, UniProt P04578 512-856)
test.name: cell-based or functional assay
Bridge positions count the residues as written; N and C are the ends. Square brackets hold non-standard residues; d marks the D form. Ends that are not written are not given here. I, II: the chains in the order shown.
measured.parameter: IC50 (HXB2), pseudovirion entry (nM)

binder | result
C5C(PIE7-GK)3 (disulfide I:3-I:12, II:3-II:12 (inferred); also: trimer: two chain 1 copies joined via C-terminal Lys by PEG5 spacers to the C-terminal Lys of central chain 2) peptide 1: G[dA][dC][dD][dY][dP][dE][dW][dQ][dW][dL][dC][dA][dA]G[dK] peptide 2: G[dA][dC][dD][dY][dP][dE][dW][dQ][dW][dL][dC][dA][dA]G[dK][dK] | 0.13
